# Test system: HL-60
# Test Protocol: Induction of apoptosis in human HL60 cells assessed as apoptotic nuclei at 5 uM after 24 hrs by acridine orange/ethidium bromide staining based fluorescence microscopy
# Assay type: functional
Activity listing for selected compounds.
Test Readout: Activity (%)

# Compound, Assay Result
data = [
    ("O=C1c2ccccc2C(=O)c2c1ccc1nc(-c3ccccc3)[nH]c21", 12.59),
    ("CC(C)=CCC1=C(OC2(CC=C(C)C)C(=O)C(=O)c3ccccc3C2=O)C(=O)c2ccccc2C1=O (configuration not stated)", 11.17),
    ("O=C1c2ccccc2C(=O)c2c1ccc1nc(-c3ccccc3O)[nH]c21", 8.21),
    ("O=C1c2ccccc2C(=O)c2c1ccc1nc(-c3ccc(O)cc3)[nH]c21", 10.7),
    ("Cc1cccc(-c2nc3ccc4c(c3[nH]2)C(=O)c2ccccc2C4=O)c1", 7.33),
    ("O=C1c2ccccc2C(=O)c2c1ccc1nc(-c3cccc(O)c3)[nH]c21", 10.49),
    ("Cc1ccccc1-c1nc2ccc3c(c2[nH]1)C(=O)c1ccccc1C3=O", 11.47),
    ("C=CCC1=C(OC2(CC=C)C(=O)C(=O)c3ccccc3C2=O)C(=O)c2ccccc2C1=O (configuration not stated)", 3.91),
    ("Cc1ccc(-c2nc3ccc4c(c3[nH]2)C(=O)c2ccccc2C4=O)cc1", 5.27),
    ("CC(C)CCC1=C(OC2(CCC(C)C)C(=O)C(=O)C3=C(CCCC3)C2=O)C(=O)C2=C(CCCC2)C1=O (configuration not stated)", 10.21),
    ("CCCC1=C(OC2(CCC)C(=O)C(=O)C3=C(CCCC3)C2=O)C(=O)C2=C(CCCC2)C1=O (configuration not stated)", 9.13),
    ("CC(C)CCC1=C(OC2(CCC(C)C)C(=O)C(=O)c3ccccc3C2=O)C(=O)c2ccccc2C1=O (configuration not stated)", 8.13),
]

Data origin, for the record: ChEMBL document CHEMBL1649387
